# MEASURED TARGET: AaTsaD;AaTsaBmut (Aquifex aeolicus;Aquifex aeolicus, UniProt O66986;O66494 1-335;1-200+=WEKKKRG, |internal_change)
# Sequence (O66986 whole entry, change not shown, chain 1 of 2): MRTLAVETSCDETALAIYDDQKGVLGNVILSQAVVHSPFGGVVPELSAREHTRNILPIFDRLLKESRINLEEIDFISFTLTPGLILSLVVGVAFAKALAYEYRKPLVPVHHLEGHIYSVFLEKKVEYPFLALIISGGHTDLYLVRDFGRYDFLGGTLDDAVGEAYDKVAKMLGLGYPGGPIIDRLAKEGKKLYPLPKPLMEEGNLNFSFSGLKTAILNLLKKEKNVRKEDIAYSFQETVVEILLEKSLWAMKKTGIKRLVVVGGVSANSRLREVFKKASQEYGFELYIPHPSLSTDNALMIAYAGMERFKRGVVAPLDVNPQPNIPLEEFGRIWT
# Sequence (chain, as listed by the source |, chain 2 of 2): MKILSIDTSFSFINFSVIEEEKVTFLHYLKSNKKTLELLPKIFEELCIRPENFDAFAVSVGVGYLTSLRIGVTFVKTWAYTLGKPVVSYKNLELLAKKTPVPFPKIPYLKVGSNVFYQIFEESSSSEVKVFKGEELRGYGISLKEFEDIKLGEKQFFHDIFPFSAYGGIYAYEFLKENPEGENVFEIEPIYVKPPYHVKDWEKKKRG
# TEST DESCRIPTION: EMSA; TsaD2Bmut2 tetramer; EMSA: 1 uM 6-FAM-tRNA, 0-100 uM protein, 2% agarose, 20 mM Tris-HCl/50 mM glycine pH 8.5 running buffer (loading buffer for native gels 20 mM Tris-HCl pH 7.5, 300 mM NaCl, 25% glycerol); MST: 10 nM tRNA, 20 mM PBS pH 7.5, 300 mM NaCl, 0.05% Tween 20, 25 C
# TEST CONTEXT: protein: recombinant;recombinant; tags: ;C-terminal 6His; chain copies: 2;2; label: 5' 6-FAM; tRNA cloverleaf
ENDPOINT NAME: Kd

BINDER	OBSERVED MEASUREMENT
A. aeolicus tRNALysUUU (structured_RNA) RNA: GAGCCGGUAGCUCAGUUGGUAGAGCAACGGCCUUUUAAGCCGUGGGUCGCGGGUUCGAGUCCCGCCCGGCUCACCA	~1160 nM
